# Tested on: UACC-62 melanoma
# protocol.summary: NCI tumour cell line growth inhibition, 48 h
Below, each of the molecules is paired with its reported TGI value.
assay.metric: TGI

molecule | target.of.assay | observed.value
Cc1ccc(Oc2ccccc2N)cc1 | UACC-62 melanoma | > 100 µM
O=[N+]([O-])c1ccc2oc(=Nc3ccccc3)c(Nc3ccccc3)nc2c1 | UACC-62 melanoma | > 100 µM
C=C[C@@]1(O)CCCC[C@@H]1CC(Sc1ccccc1)Sc1ccccc1 | UACC-62 melanoma | > 100 µM
C[N+](C)(C)C=Nc1cccc2c1CCCC2 | UACC-62 melanoma | > 100 µM
CCCCCCCC(=O)OCCCC1[C@]2(C)CC[C@@]3(C)C([C@H](C)CCC=C(C)C)CC[C@]3(C)C2CC[C@]12OC2(C)C (some centres not stated) | UACC-62 melanoma | 78 µM
COc1cccc(/C(Cl)=C(\C=O)c2cccc(OC)c2)c1 | UACC-62 melanoma | 18.8 µM
CN1CN(c2ccccc2)C2(CCN(CCCCCCF)CC2)C1=O | UACC-62 melanoma | > 100 µM
O=C(C#Cc1ccccc1)N1c2ccccc2CC1c1c[nH]c2ccccc12 (configuration not stated) | UACC-62 melanoma | 22.8 µM
COc1ccc(C2OCCN2C)cc1 (configuration not stated) | UACC-62 melanoma | > 100 µM
CCOC(=O)c1c(C)nc2c(c1-c1cn(-c3ccccc3)nc1-c1ccccc1)C(=O)c1ccccc1-2 | UACC-62 melanoma | > 100 µM
Cc1c(OCc2ccccc2)c(=O)ccn1CCc1c[nH]c2ccccc12 | UACC-62 melanoma | 87.3 µM
Cc1ccc(N(O)C(C)(C)C)cc1 | UACC-62 melanoma | > 100 µM
COC(=O)NNC(c1ccc(Cl)cc1)c1ccc(Cl)cc1 | UACC-62 melanoma | 30.9 µM
CC(C)c1nc(N(C)S(C)(=O)=O)nc(-c2ccc(F)cc2)c1/C=C/[C@@H](O)C[C@@H](O)CC(=O)O | UACC-62 melanoma | > 100 µM
COC(=O)CCC12CCC(=O)C1[C@@H](C(=O)OC)C[C@H]2C(=O)OC (some centres not stated) | UACC-62 melanoma | > 100 µM
O=C(/C=C/c1ccc(O)c(O)c1)NCc1c[nH]c2ccccc12 | UACC-62 melanoma | > 100 µM
CC1(C)C(CCO)CC1n1ccc(=O)[nH]c1=O (configuration not stated) | UACC-62 melanoma | > 100 µM
CCOC(=O)c1cc2c(OCc3ccccc3)c(OC)cc3c2c(n1)N(c1ccc(OC)cc1)C(C)C3 (configuration not stated) | UACC-62 melanoma | > 50 µM
N#C/C(=C\c1cccc(O)c1O)C(N)=O | UACC-62 melanoma | > 100 µM
O=C1C2=C(C(=O)c3cnccc31)C1C=CC2CC1 (configuration not stated) | UACC-62 melanoma | 3.4 µM
[O-]c1ccccc1C=Nc1ccc2c(c1)CCC2.[O-]c1ccccc1C=Nc1ccc2c(c1)CCC2.[O]=[U+2]=[O] | UACC-62 melanoma | > 100 µM
CN(C(=O)c1ccc2c(c1)sc1c(=O)n(C)c3ccccc3c12)c1ccccc1 | UACC-62 melanoma | > 100 µM
COc1ccc2c(c1)CC[C@@H]1C2CC[C@](C)(C#N)C1CC#N (some centres not stated) | UACC-62 melanoma | > 100 µM
CSc1ncc(Br)c(Sc2nc(N)nc3nc[nH]c23)n1 | UACC-62 melanoma | 12.2 µM
O=[N+]([O-])c1cccc(-c2nc(-c3ccccc3)c(-c3ccccc3)[nH]2)c1 | UACC-62 melanoma | > 100 µM
CS[C@]12[C@@H]3C(=O)N(C)C(=O)[C@@H]3[C@](C)(C(=O)N1C)C(=O)N2c1ccccc1 | UACC-62 melanoma | > 100 µM
CC1(C)CC2(C)CC1CC2(O)c1ccccc1 (configuration not stated) | UACC-62 melanoma | > 100 µM
Nc1ccc(Nc2cc(=O)[nH]c(=O)[nH]2)cc1 | UACC-62 melanoma | > 100 µM
O=[N+]([O-])c1nccn1CC(O)CN1CCCCC1 (configuration not stated) | UACC-62 melanoma | > 100 µM
Nc1cccc(S(=O)(=O)Nc2nnc(S(N)(=O)=O)s2)c1 | UACC-62 melanoma | > 100 µM
CN(C)CCNC(=O)c1cccc2cc3cc(O)ccc3nc12 | UACC-62 melanoma | 2.74 µM
C=C(C)C1CC/C(C)=C/CC[C@]2(C)O[C@@H]2CCC2=CC1OC2=O (some centres not stated) | UACC-62 melanoma | > 100 µM
O=NN(CCF)C(=O)NC1CC2CCC1C2 (configuration not stated) | UACC-62 melanoma | > 100 µM
Cc1c(C(=O)/C=C/C=C/c2ccccc2)[n+](=O)c2ccccc2n1[O-] | UACC-62 melanoma | 30.2 µM
CCCn1cnc2c(SCC(=O)O)nc(N)nc21 | UACC-62 melanoma | > 100 µM
COc1ccc2nc3c(c(NCCCN(C)C)c2c1)CCCC3 | UACC-62 melanoma | 31.2 µM
NS(=O)(=O)c1ccc(N=Nc2c(O)[nH]c3ccc(C(=O)NCc4ccncc4)cc23)cc1 | UACC-62 melanoma | > 25 µM
CC(=O)OC12c3ccccc3C(c3ccccc31)C1C(=O)N(c3ccccn3)C(=O)C12 (configuration not stated) | UACC-62 melanoma | > 100 µM
Cc1ccc(S(=O)(=O)N=NC=C2c3ccccc3N(O)c3ccccc32)cc1 | UACC-62 melanoma | 18.8 µM
CCOC(=O)CCC1(C(=O)OCC)CCCC1=O (configuration not stated) | UACC-62 melanoma | > 100 µM
C=C1C(=O)O[C@H]2[C@H]1CC/C(COC(=O)NCc1ccc(OC)cc1)=C\CC[C@@]1(C)O[C@@H]21 | UACC-62 melanoma | 3.16 µM
CC1(c2cc3c(cc2Br)OCO3)SCCCS1 | UACC-62 melanoma | > 100 µM
